Experimental System: SMOX (Homo sapiens (Human), UniProt Q9NWM0)
Sequence (Q9NWM0 whole entry): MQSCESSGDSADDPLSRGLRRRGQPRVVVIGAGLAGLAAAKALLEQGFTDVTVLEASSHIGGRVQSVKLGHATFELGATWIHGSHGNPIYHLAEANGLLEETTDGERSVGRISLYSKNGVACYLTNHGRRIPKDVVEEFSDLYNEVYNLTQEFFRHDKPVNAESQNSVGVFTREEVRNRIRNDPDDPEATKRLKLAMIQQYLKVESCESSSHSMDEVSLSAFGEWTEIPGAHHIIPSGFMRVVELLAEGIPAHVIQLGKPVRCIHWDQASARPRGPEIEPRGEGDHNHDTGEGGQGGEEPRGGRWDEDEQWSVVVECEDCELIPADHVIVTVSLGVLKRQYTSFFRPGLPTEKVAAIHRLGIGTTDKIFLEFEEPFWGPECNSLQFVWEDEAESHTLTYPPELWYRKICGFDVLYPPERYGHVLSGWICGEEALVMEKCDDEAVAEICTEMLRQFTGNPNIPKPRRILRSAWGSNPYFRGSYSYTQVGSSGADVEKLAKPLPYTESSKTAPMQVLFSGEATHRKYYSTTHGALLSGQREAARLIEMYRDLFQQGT
Test Description: Cellular Thermal Shift Assay (CETSA) with alphaLISA detection of intact SMOX in A549 cells
Format: cell-based
Particulars: 1 hour compound incubation at 37° C., heated to 55° C. for 5 minutes
Measured Parameter: SMOx % recovery CETSA (%)

Example entries begin here.
O=C(NCCCc1c[nH]cn1)c1cc2nc(-c3ccccc3)cc(-c3ccccc3)n2n1: 43
O=C(NCC1CCc2nccn2C1)c1cc2nc(-c3ccccc3)cc(-c3ccccc3)n2n1 (stereo not drawn): 10
O=C(NCCCn1ccnc1)c1cc2nc(-c3ccccc3)cc(N3CCCC(F)C3)n2n1 (stereo not drawn): 87
Cc1cccc(-c2cc(-c3ccccc3)nc3cc(C(=O)NCCCn4ccnc4)nn23)c1: 0
O=C(NCCn1ccnc1)c1cc2nc(-c3ccccc3)cc(-c3ccccc3)n2n1: 0
O=C(NCCCn1ccnc1)c1cc2nc(-c3ccccc3)cc(-c3ccccc3)n2n1: 74

P = CC(C)Nc1cc(-c2ccccc2)nc2cc(C(=O)NCCCn3ccnc3)nn12
Q = CN1CC(NC(=O)c2cc3nc(-c4ccccc4)cc(-c4ccccn4)n3n2)C1
R = Cn1ccnc1CCCNC(=O)c1cc2nc(-c3ccccc3)cc(-c3ccccc3)n2n1
Arrange the 3 compounds by rising SMOx % recovery CETSA, starting with the smallest. Output spec: a listing of the labels in the requested order.
P, R, Q
(P: 1%, R: 12%, Q: 20%)

----------
Experimental System: hPAOX (Homo sapiens (Human))
Sequence (Q6QHF9 whole entry): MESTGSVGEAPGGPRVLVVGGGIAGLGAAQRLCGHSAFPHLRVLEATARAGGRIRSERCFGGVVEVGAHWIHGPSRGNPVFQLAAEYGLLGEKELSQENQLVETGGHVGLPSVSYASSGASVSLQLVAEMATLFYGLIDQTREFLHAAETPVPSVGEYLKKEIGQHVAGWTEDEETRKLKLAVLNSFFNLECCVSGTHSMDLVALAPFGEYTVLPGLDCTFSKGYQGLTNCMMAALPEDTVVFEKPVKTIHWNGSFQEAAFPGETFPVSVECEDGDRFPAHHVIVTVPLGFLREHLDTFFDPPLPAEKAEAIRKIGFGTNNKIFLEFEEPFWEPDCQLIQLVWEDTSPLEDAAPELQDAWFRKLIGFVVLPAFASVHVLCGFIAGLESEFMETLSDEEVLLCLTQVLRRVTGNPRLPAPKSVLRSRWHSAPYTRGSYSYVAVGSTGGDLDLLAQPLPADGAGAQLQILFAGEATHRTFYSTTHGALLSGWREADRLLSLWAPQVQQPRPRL
Test Description: Human PAOX assay (HyPerBlu chemiluminescent detection of hydrogen peroxide)
Particulars: 60 pM recombinant PAOX, 20 μM N-acetylspermine substrate
Measured Parameter: IC50 (µM)

Solved entries:
CCN1CCC(NC(=O)c2cc3nc(-c4ccccc4)cc(-c4ccccc4)n3n2)C1 (stereo not drawn) [Example 5]: 0.914
O=C(NCCCc1cccnc1)c1cc2nc(-c3ccccc3)cc(-c3ccccc3)n2n1 [Example 31]: 2.1
O=C(NCCCn1ccnc1)c1cc2nc(-c3ccc(C(F)(F)F)cc3)cc(-c3ccccc3)n2n1 [Example 101]: 0.181
O=C(NCCCN1CCC1)c1cc2nc(-c3ccccc3)cc(-c3ccccc3)n2n1 [Example 35]: 0.362
CC(C)Cc1cc(-c2ccccc2)nc2cc(C(=O)NCCCn3ccnc3)nn12 [Example 112]: 1.94

I = O=C(NCCCn1ccnc1)c1cc2nc(-c3ccccc3)cc(C3CCCCN3)n2n1 (stereo not drawn) [Example 114]
II = CN1CC(NC(=O)c2cc3nc(-c4ccccc4)cc(Oc4ccccc4)n3n2)C1 [Example 76]
Would you kindly point out which of I and II has the smaller IC50 figure? Select an item and report its label.
II

P = O=C(NCCCn1ccnc1)c1cc2nc(-c3ccccc3)cc(-c3ccc(F)cc3)n2n1 [Example 86]
Q = CN1CC(NC(=O)c2nn3c(-c4ccccc4)cc(-c4ccccc4)nc3c2Cl)C1 [Example 49]
Would you mind telling me which has the lower recorded IC50 between P and Q ? API: response body contains the label of the selected item.
P

----------
Experimental System: hPAOX (Homo sapiens (Human))
Test Description: Human PAOX assay (HyPerBlu chemiluminescent detection of hydrogen peroxide)
Assay type: biochemical
Particulars: 60 pM recombinant PAOX, 20 μM N-acetylspermine substrate
Measured Parameter: IC50 (µM)

Example results:
CC(C)Nc1cc(-c2ccccc2)nc2cc(C(=O)NCCCn3ccnc3)nn12 [Example 57]: 4.44
CN1CCC(NC(=O)c2nn3c(-c4ccccc4)cc(-c4ccccc4)nc3c2I)C1 (centres unmarked) [Example 47]: 20.6
O=C(NCCCn1ccnc1)c1cc2nc(-c3ccccc3)cc(-c3ccc4nonc4c3)n2n1 [Example 84]: 1.31

A = O=C(NCCCn1ccnc1)c1cc2nc(-c3ccccc3)cc(C3CCCCO3)n2n1 (centres unmarked) [Example 111]
B = O=C(NCCCn1ccnc1)c1cc2nc(-c3ccccc3)cc(C3CCCCC3)n2n1 [Example 107]
C = CN1CCN(c2cc(-c3ccccc3)nc3cc(C(=O)NCCCn4ccnc4)nn23)CC1 [Example 60]
D = CN1CC(NC(=O)c2cc3nc(-c4cccc(F)c4)cc(-c4ccccc4)n3n2)C1 [Example 105]
// sort entries: IC50, high to low Put the labels in the requested order and list them out.
C, A, B, D
(C: 24.8 µM, A: 2.92 µM, B: 1.27 µM, D: 0.666 µM)
